Molecular target: human ANO6 (variant 5) (Homo sapiens, UniProt Q4KMQ2)
Construct: expressed in transfected cells; host or cells: Fischer rat thyroid (FRT) cells
Sequence (Q4KMQ2 1-931 isoform Q4KMQ2-2): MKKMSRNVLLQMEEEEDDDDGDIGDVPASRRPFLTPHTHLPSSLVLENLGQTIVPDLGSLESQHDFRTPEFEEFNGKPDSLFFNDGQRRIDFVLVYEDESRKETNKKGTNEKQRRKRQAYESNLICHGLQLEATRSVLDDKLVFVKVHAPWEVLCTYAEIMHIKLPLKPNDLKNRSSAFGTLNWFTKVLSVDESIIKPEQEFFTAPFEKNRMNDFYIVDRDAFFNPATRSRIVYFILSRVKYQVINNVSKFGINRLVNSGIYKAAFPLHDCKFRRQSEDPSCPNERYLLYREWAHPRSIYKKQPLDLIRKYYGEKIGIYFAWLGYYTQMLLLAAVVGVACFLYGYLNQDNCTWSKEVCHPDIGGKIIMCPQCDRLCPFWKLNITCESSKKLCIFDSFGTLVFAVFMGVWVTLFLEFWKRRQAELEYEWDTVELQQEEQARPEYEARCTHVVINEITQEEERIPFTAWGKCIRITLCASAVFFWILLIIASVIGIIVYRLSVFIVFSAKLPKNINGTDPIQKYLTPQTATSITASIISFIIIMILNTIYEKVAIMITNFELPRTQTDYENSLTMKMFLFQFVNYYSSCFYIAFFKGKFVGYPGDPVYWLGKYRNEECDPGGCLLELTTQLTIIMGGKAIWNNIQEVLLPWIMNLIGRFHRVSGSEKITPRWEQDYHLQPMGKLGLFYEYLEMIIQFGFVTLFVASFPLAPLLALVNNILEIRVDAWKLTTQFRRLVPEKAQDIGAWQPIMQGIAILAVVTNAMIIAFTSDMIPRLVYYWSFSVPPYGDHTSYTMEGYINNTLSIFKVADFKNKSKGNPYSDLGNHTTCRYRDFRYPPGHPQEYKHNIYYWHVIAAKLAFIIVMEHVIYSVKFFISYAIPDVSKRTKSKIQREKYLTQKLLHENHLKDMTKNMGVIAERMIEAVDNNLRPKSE
Assay: Lact C2 assay (measuring phosphatidylserine externalization scramblase function)
Type: cell-based
Conditions: FRT, compound 50 nM; FRT cells expressing human ANO6 (variant 5); ionomycin 10 µM; Lact-C2-GFP fluorescence; average of three tests; read-out: % Inhibition 50 nM
Entries annotated with measured inhibition at 0.05 µM

Which inhibition at 0.05 µM value belongs to c1cc(Nc2ncc(-c3cccnn3)cn2)cc(-c2nc3ccccc3[nH]2)c1 ?
30 to 60%

Now try Brc1cc2[nH]c(-c3cccc(Nc4ccc(-c5cccnn5)cc4)c3)nc2cn1 .
30 to 60%

How about this compound: FC(F)(F)Oc1ccc2nc(-c3cccc(Nc4ncc(-c5cccnn5)cn4)c3)[nH]c2c1
30 to 60%

* * *

Target: human ANO6 (variant 5) (Homo sapiens)
Construct: expressed in transfected cells; host or cells: Fischer rat thyroid (FRT) cells
Assay: Lact C2 assay (measuring phosphatidylserine externalization scramblase function)
Type: cell-based
Conditions: FRT, compound 50 nM; FRT cells expressing human ANO6 (variant 5); ionomycin 10 µM; Lact-C2-GFP fluorescence; average of three tests; read-out: % Inhibition 50 nM
Procedure: Ionomycin (Alomonelab, cat. # I-700), DAPI (Sigma- Aldrich, cat. # D8417), paraformaldehyde (Biosesang, cat. #P2031), Lionheart FX automated fluorescence microscope (BioTek), Gen5™ software program (BioTek), and Image J analysis software program. […] Phosphatidylserine externalization inhibitory activity (%) by the compound was calculated through the following analysis method. […]
PROPERTY_MEASURED: inhibition at 0.05 µM

[
  {
    "CHEMICAL_STRUCTURE": "FC(F)(F)c1ccc2nc(-c3cccc(Nc4ncc(-c5cscn5)cn4)c3)[nH]c2c1",
    "inhibition at 0.05 µM": "30 to 60%"
  },
  {
    "CHEMICAL_STRUCTURE": "FC(F)(F)c1ccc2nc(-c3cccc(Nc4ccc(-c5ncccn5)cn4)c3)[nH]c2c1",
    "inhibition at 0.05 µM": "> 60%"
  },
  {
    "CHEMICAL_STRUCTURE": "FC(F)(F)c1ccc2nc(-c3cccc(Nc4ccc(-c5ccncn5)cn4)c3)[nH]c2c1",
    "inhibition at 0.05 µM": "> 60%"
  },
  {
    "CHEMICAL_STRUCTURE": "FC(F)(F)c1ccc2nc(-c3cccc(Nc4ccc(-c5cccnn5)cc4)c3)[nH]c2c1",
    "inhibition at 0.05 µM": "> 60%"
  },
  {
    "CHEMICAL_STRUCTURE": "FC(F)(F)c1ccc2nc(-c3cccc(Nc4ccc(-c5ccncn5)cc4)c3)[nH]c2c1",
    "inhibition at 0.05 µM": "> 60%"
  }
]

Which value of inhibition at 0.05 µM has been reported for Fc1ccc2nc(-c3cccc(Nc4ncc(-c5ccccn5)cn4)c3)[nH]c2c1 in the records?
> 60%

Next up: c1cc(Nc2ccc(-c3ncco3)cc2)cc(-c2nc3ccccc3[nH]2)c1
30 to 60%

Moving on to the next compound: CN(C)c1ccc2nc(-c3cccc(Nc4ccc(-c5cccnn5)cc4)c3)[nH]c2c1
30 to 60%

Moving on to the next compound: FC(F)(F)Oc1cc2nc(-c3cccc(Nc4ccc(-c5ccccc5)nn4)c3)[nH]c2cc1Cl
> 60%

Next compound: FC(F)(F)c1ccc2nc(-c3cccc(Nc4ccc(-c5ncccn5)cc4)c3)[nH]c2c1
> 60%

Proceed to Fc1cc2nc(-c3cccc(Nc4cnc(-c5ccncn5)cn4)c3)[nH]c2cc1F
> 60%

Input FC(F)Oc1ccc2nc(-c3cccc(Nc4ccc(-c5ccccn5)cn4)c3)[nH]c2c1
> 60%

Proceed to CC(C)(C)c1ccc2nc(-c3cccc(Nc4ccc(-c5ccccc5)nn4)c3)[nH]c2c1
> 60%

Lookup FC(F)(F)c1ccc2nc(-c3cccc(Nc4ccc(-c5ccccc5)cn4)c3)[nH]c2c1
> 60%

Entry to check: FC(F)(F)Oc1cc2[nH]c(-c3cccc(Nc4ccc(-c5cccnn5)cc4)c3)nc2cn1
> 60%

Lookup Fc1cc2nc(-c3cccc(Nc4cnc(-c5ccccn5)cn4)c3)[nH]c2cc1F
30 to 60%

And what about the compound FC(F)Oc1ccc2nc(-c3cccc(Nc4ncc(-c5ccccn5)cn4)c3)[nH]c2c1 ?
> 60%

* * *

Some molecules, each annotated with its measured inhibition at 0.05 µM.
Molecular target: human ANO6 (variant 5) (Homo sapiens, UniProt Q4KMQ2)
Construct: expressed in transfected cells; host or cells: Fischer rat thyroid (FRT) cells
Sequence (Q4KMQ2 1-931 isoform Q4KMQ2-2): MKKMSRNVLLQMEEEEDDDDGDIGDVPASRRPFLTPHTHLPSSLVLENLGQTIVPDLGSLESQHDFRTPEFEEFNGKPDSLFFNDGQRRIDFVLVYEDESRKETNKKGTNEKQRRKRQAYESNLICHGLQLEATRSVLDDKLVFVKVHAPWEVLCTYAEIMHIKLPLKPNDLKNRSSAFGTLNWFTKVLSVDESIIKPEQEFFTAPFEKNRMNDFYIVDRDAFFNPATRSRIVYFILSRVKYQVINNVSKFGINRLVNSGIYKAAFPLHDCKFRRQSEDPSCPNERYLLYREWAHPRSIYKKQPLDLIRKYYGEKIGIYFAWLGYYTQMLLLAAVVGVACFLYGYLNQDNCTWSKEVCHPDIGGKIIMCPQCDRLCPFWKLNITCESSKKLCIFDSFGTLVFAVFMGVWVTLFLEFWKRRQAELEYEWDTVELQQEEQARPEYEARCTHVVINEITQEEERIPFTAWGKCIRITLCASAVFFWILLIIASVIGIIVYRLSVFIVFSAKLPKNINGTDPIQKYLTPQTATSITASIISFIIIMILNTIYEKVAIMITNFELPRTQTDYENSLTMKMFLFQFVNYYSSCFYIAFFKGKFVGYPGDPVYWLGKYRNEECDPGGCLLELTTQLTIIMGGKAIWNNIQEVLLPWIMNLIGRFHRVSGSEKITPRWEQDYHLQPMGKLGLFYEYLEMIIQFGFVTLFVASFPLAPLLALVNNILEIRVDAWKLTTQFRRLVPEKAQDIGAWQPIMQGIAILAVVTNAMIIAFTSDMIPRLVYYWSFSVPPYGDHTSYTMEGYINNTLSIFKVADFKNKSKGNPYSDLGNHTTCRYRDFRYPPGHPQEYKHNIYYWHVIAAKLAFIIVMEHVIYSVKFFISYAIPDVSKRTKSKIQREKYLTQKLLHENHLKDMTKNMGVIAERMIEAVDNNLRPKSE
Experiment: Lact C2 assay (measuring phosphatidylserine externalization scramblase function)
Format: cell-based
Details: FRT, compound 50 nM; FRT cells expressing human ANO6 (variant 5); ionomycin 10 µM; Lact-C2-GFP fluorescence; average of three tests; read-out: % Inhibition 50 nM

[
  {
    "CHEMICAL_STRUCTURE": "O=[N+]([O-])c1ccc2nc(-c3cccc(Nc4ccc(-c5cccnn5)cc4)c3)[nH]c2c1",
    "RESULT": "> 60%"
  }
]

Bench note: what inhibition at 0.05 µM did FC(F)(F)c1ccc2nc(-c3cccc(Nc4ccc(-c5ccccc5)nn4)c3)[nH]c2c1 show?
30 to 60%

# iterate: FC(F)(F)c1cc2nc(-c3cccc(Nc4ncc(-c5cccnn5)cn4)c3)[nH]c2cc1Cl
30 to 60%

Do the same for FC(F)(F)c1cnc2nc(-c3cccc(Nc4ncc(-c5ccccn5)cn4)c3)[nH]c2c1 please
30 to 60%
